# system: TBK1 (Homo sapiens (Human), UniProt Q9UHD2)
# Sequence (Q9UHD2 whole entry): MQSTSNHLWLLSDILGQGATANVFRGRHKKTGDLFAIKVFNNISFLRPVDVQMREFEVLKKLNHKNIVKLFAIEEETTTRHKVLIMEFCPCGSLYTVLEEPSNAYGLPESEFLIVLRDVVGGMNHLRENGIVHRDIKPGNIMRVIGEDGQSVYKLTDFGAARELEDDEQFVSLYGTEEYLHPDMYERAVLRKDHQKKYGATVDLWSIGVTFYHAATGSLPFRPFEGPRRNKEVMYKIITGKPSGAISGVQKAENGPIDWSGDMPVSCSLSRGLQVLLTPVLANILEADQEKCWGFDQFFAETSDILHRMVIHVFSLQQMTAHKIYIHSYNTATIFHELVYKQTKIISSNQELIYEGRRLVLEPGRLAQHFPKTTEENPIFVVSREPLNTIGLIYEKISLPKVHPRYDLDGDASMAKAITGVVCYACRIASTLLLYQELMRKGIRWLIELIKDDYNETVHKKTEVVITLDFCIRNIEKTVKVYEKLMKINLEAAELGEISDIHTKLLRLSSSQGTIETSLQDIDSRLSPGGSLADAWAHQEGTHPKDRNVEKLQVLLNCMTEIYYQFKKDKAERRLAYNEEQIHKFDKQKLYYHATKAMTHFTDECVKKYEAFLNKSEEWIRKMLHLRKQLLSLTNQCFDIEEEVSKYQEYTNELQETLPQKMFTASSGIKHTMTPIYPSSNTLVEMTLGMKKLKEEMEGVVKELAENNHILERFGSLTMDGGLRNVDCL
# protocol: In vitro TBK1 degradation assay, Panc02.13 cells (compounds 3-33), immunoblot
# Assay type: cell-based
# statedConditions: TBK1 degradation, Panc02.13 cells, 16 h; mean of ≥ 2 determinations; read-out: DC50 (concentration at which 50% degradation is observed)
quantity: DC50 (nM)
Report as a plain number; the unit nM is understood.

Example cases with answers are listed next.
Cc1ncsc1-c1ccc(CNC(=O)[C@@H]2C[C@@H](O)CN2C(=O)[C@@H](NC(=O)COCCOCCOCCOCCOCCOc2ccc(Nc3ncc(Br)c(NCCCN(C)C(=O)C4CCC4)n3)cc2)C(C)(C)C)cc1 | 29
Cc1ncsc1-c1ccc(CNC(=O)[C@@H]2C[C@@H](O)CN2C(=O)[C@@H](NC(=O)CCCCCOCCCCOCCCCOc2ccc(Nc3ncc(Br)c(NCCCN(C)C(=O)C4CCC4)n3)cc2)C(C)(C)C)cc1 | 95
CCC[C@H](NC(=O)COCCCOCCCCOCCCOc1ccc(Nc2ncc(Br)c(NCCCN(C)C(=O)C3CCC3)n2)cc1)C(=O)N1C[C@H](O)C[C@H]1C(=O)NCc1ccc(-c2scnc2C)cc1 | 288
Cc1ncsc1-c1ccc(CNC(=O)[C@@H]2C[C@@H](O)CN2C(=O)[C@@H](NC(=O)COCCCOCCCCCOc2ccc(Nc3ncc(Br)c(NCCCN(C)C(=O)C4CCC4)n3)cc2)C(C)(C)C)cc1 | 88

Here is another compound to look at.
Supply measured DC50 of Cc1ncsc1-c1ccc(CNC(=O)[C@@H]2C[C@@H](O)CN2C(=O)[C@@H](NC(=O)COCCCOCCCCOCCCOc2ccc(Nc3ncc(C4CCC4)c(NCCCN(C)C(=O)C4CCC4)n3)cc2)C(C)(C)C)cc1 in your reply. 544

Data origin, for the record: patent US10946017B2
